I'd be grateful if you could share measured inhibition at 1 µM for these entries.
system: UniProtKB P27338
Sequence (P27338 whole entry): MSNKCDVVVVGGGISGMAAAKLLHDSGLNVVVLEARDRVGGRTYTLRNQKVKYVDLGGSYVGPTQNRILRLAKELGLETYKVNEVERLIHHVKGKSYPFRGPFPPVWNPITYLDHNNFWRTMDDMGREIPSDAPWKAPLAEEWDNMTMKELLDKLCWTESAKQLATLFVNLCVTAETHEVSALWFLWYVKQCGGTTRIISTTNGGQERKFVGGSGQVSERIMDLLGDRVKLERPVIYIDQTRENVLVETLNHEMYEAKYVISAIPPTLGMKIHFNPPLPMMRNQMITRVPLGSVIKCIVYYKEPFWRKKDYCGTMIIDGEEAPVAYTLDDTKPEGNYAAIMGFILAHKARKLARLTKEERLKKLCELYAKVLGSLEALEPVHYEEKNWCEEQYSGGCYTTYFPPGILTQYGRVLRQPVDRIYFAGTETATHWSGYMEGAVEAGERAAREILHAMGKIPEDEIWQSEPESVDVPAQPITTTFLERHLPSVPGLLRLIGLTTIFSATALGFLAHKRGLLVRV
assayMethodText: Inhibition of human recombinant MAO-B expressed in insect cells at 1 uM using p-tyramine as substrate preincubated for 30 mins followed by substrate addition measured for 15 mins by resorufin dye-based fluorescence assay relative to control
measurementSetup: 0.25 h, read-out: INH
Answers are plain numbers, in %.

{"compound": "CC(C)n1c(=O)[nH]c2ccc(OCCOc3cccc(F)c3)cc21", "inhibition at 1 µM / %": 12.9}
{"compound": "Cn1c(=O)[nH]c2ccc(OCCCc3ccccc3)cc21", "inhibition at 1 µM / %": 14}
{"compound": "Cn1c(=O)[nH]c2ccc(OCCOc3ccc(Cl)cc3)cc21", "inhibition at 1 µM / %": 9.94}
{"compound": "CCn1c(=O)[nH]c2ccc(OCCCc3ccccc3)cc21", "inhibition at 1 µM / %": 4.56}
{"compound": "CCn1c(=O)[nH]c2ccc(OCCOc3ccc(Cl)cc3)cc21", "inhibition at 1 µM / %": 7.24}

For each of the molecules below, note its inhibition at 1 µM.
1. O=C1Nc2ccc(OCc3ccc(F)cc3)cc2C1=O
2. CCn1c(=O)[nH]c2ccc(OCCOc3cccc(F)c3)cc21

Reply:
[92.5, 30.3]
